experiment: Biodistribution in NMRI mouse spleen/pancreas assessed per gram of tissue at 3.7 MBq/mL, iv after 2 mins by gamma counting; type: ADME, organism-based; settings: in vivo
parameter measured: Drug uptake
Please give the number followed by its unit.

Guide cases for Drug uptake, answers given:
>>> df
                                   compound  parameter_measured  observed_value
0  [11CH3]Nc1ccc(-c2nc3ccc(O)cc3s2)cc1 [PITTSBURGH COMPOUND B]         Drug uptake      4.7 % ID/g
1          Oc1ccc2nc(-c3ccc([18F])cc3)sc2c1         Drug uptake        4 % ID/g
2         COc1ccc2nc(-c3ccc([18F])cc3)sc2c1         Drug uptake      4.1 % ID/g

Drug uptake reported for this compound "Cc1ccc2nc(-c3ccc([18F])cc3)sc2c1" : 4 % ID/g
